Each entry below carries its recorded IC50.
TGT: LeIspE (Solanum lycopersicum)
Sequence (P93841 89-401): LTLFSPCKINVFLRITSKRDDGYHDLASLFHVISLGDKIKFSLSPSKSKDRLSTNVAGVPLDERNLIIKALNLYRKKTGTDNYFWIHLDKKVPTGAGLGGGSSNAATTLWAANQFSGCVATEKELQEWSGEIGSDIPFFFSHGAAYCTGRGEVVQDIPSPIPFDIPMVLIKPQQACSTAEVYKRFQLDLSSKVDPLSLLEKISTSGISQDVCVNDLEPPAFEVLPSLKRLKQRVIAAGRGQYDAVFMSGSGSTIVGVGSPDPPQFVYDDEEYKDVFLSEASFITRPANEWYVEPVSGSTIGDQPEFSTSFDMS
ASSAY_NOTES: University of Hamburg photometric enzymatic inhibition assay LeIspE
Type: biochemical, Lycopersicon esculentum
SETTINGS: read-out: LeIspE IC50

SMILES_ENTRY	IC50
Cc1nnc(-c2cc3ccccc3[nH]2)o1	> 1000 µM
c1ccc(-c2cccc(-c3nnc(-c4cc5ccccc5[nH]4)o3)c2)cc1	> 1000 µM
COc1ccc(-c2nnc(-c3cc4ccccc4[nH]3)o2)cc1	126 µM
COc1ccc(-c2nnc(-c3nc4ccccc4s3)o2)cc1	493 µM

Q: I have this molecule here, c1ccc(Cc2nnc(-c3cc4ccccc4[nH]3)o2)cc1 , and I need its recorded IC50.
Ans: > 1000 µM

Q: Another molecule to look at: Clc1ccc(-c2nnc(-c3nc4ccccc4[nH]3)o2)cc1
Ans: 298 µM

Q: Subsequent entry: C(=C\c1nnc(-c2nc3ccccc3s2)o1)/c1ccccc1
Ans: > 500 µM

Q: Same thing, different molecule: Clc1cccc(-c2nnc(-c3cc4ccccc4[nH]3)o2)c1
Ans: 149 µM

Q: Would you mind doing FC(F)(F)c1ccc(-c2nnc(-c3cc4ccccc4[nH]3)o2)cc1 as well?
Ans: 269 µM

Q: Next record, please: Clc1ccc(OCc2nnc(-c3nc4ccccc4s3)o2)c(Cl)c1
Ans: 31 µM
